# assayed target: hexokinase 2 (∆28-hHK2) (Homo sapiens)
# Sequence (P52789 29-917): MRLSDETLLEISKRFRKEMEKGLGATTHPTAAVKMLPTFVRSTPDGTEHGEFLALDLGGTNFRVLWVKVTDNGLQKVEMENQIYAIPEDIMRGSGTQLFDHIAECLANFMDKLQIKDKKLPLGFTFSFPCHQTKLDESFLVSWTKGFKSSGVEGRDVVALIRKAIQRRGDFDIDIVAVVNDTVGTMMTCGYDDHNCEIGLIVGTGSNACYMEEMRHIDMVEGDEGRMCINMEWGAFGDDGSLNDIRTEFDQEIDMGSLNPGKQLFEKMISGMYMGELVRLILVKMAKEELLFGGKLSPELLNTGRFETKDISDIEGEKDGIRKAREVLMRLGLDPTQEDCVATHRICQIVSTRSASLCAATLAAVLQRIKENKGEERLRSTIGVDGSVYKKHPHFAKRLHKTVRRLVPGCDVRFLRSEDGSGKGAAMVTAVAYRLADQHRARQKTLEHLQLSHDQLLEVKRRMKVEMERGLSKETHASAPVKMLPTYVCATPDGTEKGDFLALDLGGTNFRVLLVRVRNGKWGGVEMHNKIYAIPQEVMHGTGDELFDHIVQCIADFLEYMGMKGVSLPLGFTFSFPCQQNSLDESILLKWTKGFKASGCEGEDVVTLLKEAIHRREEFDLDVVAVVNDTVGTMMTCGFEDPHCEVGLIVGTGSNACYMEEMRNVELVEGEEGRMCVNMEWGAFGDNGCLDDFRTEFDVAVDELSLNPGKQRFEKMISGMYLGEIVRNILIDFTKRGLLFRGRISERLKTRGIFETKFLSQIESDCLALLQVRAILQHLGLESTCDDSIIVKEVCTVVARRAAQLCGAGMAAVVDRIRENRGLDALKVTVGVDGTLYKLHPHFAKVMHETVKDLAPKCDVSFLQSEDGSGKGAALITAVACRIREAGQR
# method notes: spectrophotometric enzyme assay, recombinant human enzyme, […] ATP-Mg2+
attribute measured: Ki (µM)
Respond numerically; units are µM and should not be typed.

Form: compound = O=P(O)(O)OC[C@H]1OC[C@H](O)[C@@H](O)[C@@H]1O [1,5AG6P, 1,5-anhydroglucitol-6-phosphate] ; Ki = 96

====

# assayed target: hexokinase 3 (hHK3) (Homo sapiens)
# Sequence (P52790 1-923): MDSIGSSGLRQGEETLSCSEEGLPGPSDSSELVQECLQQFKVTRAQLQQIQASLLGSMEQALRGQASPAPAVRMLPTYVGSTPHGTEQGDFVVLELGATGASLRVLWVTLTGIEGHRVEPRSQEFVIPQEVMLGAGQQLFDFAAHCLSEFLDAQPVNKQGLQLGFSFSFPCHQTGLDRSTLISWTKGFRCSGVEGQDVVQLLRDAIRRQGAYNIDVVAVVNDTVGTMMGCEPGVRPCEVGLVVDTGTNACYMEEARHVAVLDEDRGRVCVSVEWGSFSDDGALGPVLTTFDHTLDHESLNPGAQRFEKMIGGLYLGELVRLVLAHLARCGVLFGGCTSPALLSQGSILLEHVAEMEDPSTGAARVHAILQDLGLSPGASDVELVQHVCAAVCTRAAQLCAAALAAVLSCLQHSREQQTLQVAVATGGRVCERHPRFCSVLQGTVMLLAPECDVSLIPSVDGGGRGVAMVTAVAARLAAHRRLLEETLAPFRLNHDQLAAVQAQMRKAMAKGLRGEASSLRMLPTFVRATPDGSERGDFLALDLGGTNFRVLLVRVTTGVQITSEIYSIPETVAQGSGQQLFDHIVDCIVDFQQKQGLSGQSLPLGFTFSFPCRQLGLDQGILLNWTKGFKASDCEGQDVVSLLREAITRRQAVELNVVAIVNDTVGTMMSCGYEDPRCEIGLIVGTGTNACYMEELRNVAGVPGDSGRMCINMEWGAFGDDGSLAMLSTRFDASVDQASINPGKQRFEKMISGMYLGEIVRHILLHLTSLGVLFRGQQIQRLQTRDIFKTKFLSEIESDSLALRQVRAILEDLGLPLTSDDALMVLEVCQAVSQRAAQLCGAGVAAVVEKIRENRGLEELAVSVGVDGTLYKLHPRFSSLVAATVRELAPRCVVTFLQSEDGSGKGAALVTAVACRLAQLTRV
# method notes: spectrophotometric enzyme assay, recombinant human enzyme, […] ATP-Mg2+
attribute measured: Ki (µM)
Respond numerically; units are µM and should not be typed.

# lookup: O=P(O)(O)OC[C@H]1OC[C@H](O)[C@@H](O)[C@@H]1O [1,5AG6P, 1,5-anhydroglucitol-6-phosphate] on hexokinase 3 (hHK3) (Homo sapiens), Ki = 134
